Target: MERTK (UniProt Q12866)
Sequence (Q12866 whole entry, looked up): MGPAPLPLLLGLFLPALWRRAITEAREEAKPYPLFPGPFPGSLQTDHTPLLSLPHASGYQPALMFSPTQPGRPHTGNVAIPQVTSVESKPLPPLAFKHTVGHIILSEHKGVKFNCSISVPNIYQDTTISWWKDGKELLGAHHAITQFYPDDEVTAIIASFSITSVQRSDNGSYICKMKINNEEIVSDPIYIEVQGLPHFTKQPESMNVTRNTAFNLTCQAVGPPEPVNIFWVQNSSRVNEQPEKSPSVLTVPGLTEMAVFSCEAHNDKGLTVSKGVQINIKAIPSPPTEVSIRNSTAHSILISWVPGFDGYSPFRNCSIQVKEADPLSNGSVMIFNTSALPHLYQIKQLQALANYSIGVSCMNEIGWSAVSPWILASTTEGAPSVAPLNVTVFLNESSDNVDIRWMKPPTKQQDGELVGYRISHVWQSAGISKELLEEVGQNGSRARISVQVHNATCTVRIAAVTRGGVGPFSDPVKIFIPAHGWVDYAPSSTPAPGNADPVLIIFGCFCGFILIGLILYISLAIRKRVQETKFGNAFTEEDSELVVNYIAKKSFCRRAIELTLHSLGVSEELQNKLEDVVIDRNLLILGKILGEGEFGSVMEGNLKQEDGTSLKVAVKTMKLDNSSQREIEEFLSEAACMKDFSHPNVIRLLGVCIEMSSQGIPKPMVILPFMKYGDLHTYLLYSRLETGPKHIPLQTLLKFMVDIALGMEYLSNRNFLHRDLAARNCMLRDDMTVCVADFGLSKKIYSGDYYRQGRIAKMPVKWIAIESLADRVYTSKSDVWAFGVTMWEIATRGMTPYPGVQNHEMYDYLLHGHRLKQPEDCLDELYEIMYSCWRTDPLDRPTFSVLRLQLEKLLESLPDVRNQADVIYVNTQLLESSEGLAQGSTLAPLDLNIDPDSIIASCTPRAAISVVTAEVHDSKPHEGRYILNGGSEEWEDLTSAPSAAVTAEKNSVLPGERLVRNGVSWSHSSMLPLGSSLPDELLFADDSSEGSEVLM
Test: phosphorylation enrichment, bacterial display (enrichment ratio); higher = better substrate or ligand; peptides without Tyr show the background;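 further: 11-residue human phosphosite peptides and single-mutation variants displayed on the E. coli surface, counted by deep sequencing, each peptide's frequency after selection divided by its frequency in the unselected input library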;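 further: frequency after pTyr selection over input frequency; kinase dosed for 20-30% of maximal phosphorylation in three min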
Threshold rule: phosphorylation enrichment greater than or equal to 0.5 is 1; below that, 0.

>  <SEQUENCE_CHAIN>
ELRGTYTSLQQ [KIF3C_Y574]

>  <ASSAYED_TARGET>
MERTK (UniProt Q12866)

>  <LABEL_CLASS>
0

$$$$

Record RSRSPYSSRHS [CDK13_Y415] ; criterion: phosphorylation enrichment no lower than 0.5. Met?
1

Another: IQKKFYRAILE [CHD7_Y1218_YF]
0

Another: NGQALYAACQT [XDH_Y1092_V1091L]
1

Another: RELGKYGLQAY [ALDH2_Y497_E496K]
0

Another: CTTIHYNYRCN [TP53_Y234_M237R]
0

###

Target: Jak2 (UniProt O60674)
Sequence (O60674 whole entry, looked up): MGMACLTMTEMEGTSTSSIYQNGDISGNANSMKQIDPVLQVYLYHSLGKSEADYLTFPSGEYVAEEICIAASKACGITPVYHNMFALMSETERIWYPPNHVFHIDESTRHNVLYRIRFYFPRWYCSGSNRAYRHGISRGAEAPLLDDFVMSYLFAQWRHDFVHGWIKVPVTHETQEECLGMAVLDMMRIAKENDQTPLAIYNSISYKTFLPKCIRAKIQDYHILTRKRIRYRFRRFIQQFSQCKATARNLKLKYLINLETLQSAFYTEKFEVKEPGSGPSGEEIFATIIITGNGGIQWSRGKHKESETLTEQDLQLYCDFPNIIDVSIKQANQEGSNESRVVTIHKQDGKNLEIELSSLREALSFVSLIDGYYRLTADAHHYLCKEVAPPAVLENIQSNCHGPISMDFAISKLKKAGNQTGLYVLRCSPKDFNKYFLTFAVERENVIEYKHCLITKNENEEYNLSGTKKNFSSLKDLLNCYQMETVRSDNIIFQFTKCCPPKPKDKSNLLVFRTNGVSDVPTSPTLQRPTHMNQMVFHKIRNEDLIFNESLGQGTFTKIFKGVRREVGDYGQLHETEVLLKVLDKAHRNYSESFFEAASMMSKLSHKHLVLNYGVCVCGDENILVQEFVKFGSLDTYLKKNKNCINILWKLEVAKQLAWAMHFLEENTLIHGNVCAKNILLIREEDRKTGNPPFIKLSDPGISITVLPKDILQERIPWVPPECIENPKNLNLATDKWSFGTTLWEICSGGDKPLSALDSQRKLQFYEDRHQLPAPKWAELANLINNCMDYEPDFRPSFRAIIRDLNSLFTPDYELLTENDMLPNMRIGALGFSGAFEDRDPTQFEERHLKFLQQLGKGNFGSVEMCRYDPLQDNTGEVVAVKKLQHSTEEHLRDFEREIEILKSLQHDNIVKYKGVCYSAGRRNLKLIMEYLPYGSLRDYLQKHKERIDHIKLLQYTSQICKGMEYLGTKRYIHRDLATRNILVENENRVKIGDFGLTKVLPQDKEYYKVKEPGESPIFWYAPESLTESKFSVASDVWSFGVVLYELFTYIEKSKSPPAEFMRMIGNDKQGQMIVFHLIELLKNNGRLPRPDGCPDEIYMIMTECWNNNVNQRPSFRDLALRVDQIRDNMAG
Experiment: phosphorylation enrichment, bacterial display (enrichment ratio); higher = better substrate or ligand; peptides without Tyr show the background
# maps each entry to its phosphorylation enrichment

Field: example entries. Status: answers known.
>  <SEQUENCE_CHAIN>
REAAAYLHGRL [AGXT_Y297]

>  <ASSAYED_TARGET>
Jak2 (UniProt O60674)

>  <VALUE_OBSERVED>
1

$$$$
>  <SEQUENCE_CHAIN>
RSSGGYEPRGR [FUS_Y239]

>  <ASSAYED_TARGET>
Jak2 (UniProt O60674)

>  <VALUE_OBSERVED>
0.683

$$$$
>  <SEQUENCE_CHAIN>
DPTFGYEDFTR [SESN2_Y323]

>  <ASSAYED_TARGET>
Jak2 (UniProt O60674)

>  <VALUE_OBSERVED>
1.03

$$$$
>  <SEQUENCE_CHAIN>
RKTAKYLLKGE [CDH5_Y82_N79T]

>  <ASSAYED_TARGET>
Jak2 (UniProt O60674)

>  <VALUE_OBSERVED>
0.628

$$$$

Bench note: what phosphorylation enrichment did ERWLKYFPIEQ [HS3ST5_Y244] show?
0.855

Another: LNCAGYCDALE [MTUS1_Y151]
1.32

Another: FSKTQYNQVPS [CXADR_Y318_YF]
1.15

Another: SVTCTFSPALN [TP53_Y126_Y126F]
1.74

Another: HRGCLYLAIEF [TEK_Y899_Y897C_YF]
1.33

Another: PQAVTYATVKH [LILRB4_Y360_K362T]
0.882

Another: IHFAIYFLKYS [ARMC9_Y107_L108F]
1.73

Another: DLDLTSIYPNI [PTEN_Y27_Y27S]
0.903

Another: YGGLRCGYGVL [KRTAP20-2_Y13_Y13C]
0.794

Another: LYEDHYLLGTS [ASS1_Y87_R86H]
2.17

###

Target: FGFR3 (UniProt P22607)
Sequence (P22607 whole entry, looked up): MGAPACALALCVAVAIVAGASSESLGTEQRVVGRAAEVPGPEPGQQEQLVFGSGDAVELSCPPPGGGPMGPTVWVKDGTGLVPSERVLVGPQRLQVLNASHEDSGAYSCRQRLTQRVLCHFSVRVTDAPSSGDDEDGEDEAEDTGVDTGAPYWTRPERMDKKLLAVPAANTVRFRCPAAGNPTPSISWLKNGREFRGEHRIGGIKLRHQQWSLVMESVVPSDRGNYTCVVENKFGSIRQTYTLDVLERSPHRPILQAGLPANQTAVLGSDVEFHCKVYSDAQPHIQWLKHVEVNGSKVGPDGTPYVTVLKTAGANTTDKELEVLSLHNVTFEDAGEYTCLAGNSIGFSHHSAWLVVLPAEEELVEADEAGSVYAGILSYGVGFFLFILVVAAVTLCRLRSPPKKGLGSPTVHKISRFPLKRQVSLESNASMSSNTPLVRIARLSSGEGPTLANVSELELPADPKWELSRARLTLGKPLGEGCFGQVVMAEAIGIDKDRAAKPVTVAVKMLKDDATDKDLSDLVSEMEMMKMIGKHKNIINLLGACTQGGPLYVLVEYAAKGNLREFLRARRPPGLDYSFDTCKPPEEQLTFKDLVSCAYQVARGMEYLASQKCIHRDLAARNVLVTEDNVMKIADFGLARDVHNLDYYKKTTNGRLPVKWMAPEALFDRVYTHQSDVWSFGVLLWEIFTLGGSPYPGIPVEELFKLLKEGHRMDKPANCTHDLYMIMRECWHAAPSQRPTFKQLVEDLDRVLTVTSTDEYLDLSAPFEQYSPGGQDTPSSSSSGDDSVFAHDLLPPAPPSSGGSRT
Assay: phosphorylation enrichment, bacterial display (enrichment ratio); higher = better substrate or ligand; peptides without Tyr show the background
Class membership depends on phosphorylation enrichment alone; the intervals are bin 0 = under 0.5, bin 1 = from 0.5 up to 0.9, bin 2 = 0.9 and over

>  <SEQUENCE_CHAIN>
NTDETYCIDNE [TUBB2B_Y200]

>  <LABEL_CLASS>
bin 2

$$$$
>  <SEQUENCE_CHAIN>
RLASVYTKRCS [CPT2_Y508_P504L]

>  <LABEL_CLASS>
bin 1

$$$$
>  <SEQUENCE_CHAIN>
IGERTYGQVFK [CDK13_Y716_G714R_YF]

>  <LABEL_CLASS>
bin 0

$$$$
>  <SEQUENCE_CHAIN>
LSVEIHDRREF [ITGB7_Y753_Y753H_YF]

>  <LABEL_CLASS>
bin 2

$$$$
>  <SEQUENCE_CHAIN>
KDHPDYKYQRR [SOX10_Y171_P175R]

>  <LABEL_CLASS>
bin 0

$$$$
>  <SEQUENCE_CHAIN>
VKRNRYKDILP [PTPN12_Y64_K61R]

>  <LABEL_CLASS>
bin 0

$$$$
>  <SEQUENCE_CHAIN>
SIKDKHVTALY [KCNH2_Y611_Y611H]

>  <LABEL_CLASS>
bin 0

$$$$
>  <SEQUENCE_CHAIN>
ATCKAYGQALA [TKT_Y321_R318C]

>  <LABEL_CLASS>
bin 1

$$$$

Into which category would you place DWRQEYVLNEP [TGM1_Y267_S272P] ?
bin 2

Another: VYYYSYLLKNH [PTEN_Y180]
bin 2

Another: PLDEEYFTLQI [TP53_Y327_G325E]
bin 2

Another: CTTIHYNYMSN [TP53_Y234_C238S]
bin 1

Another: SWKRRYFLLWA [APBB1IP_Y331_R335W]
bin 1
